# maps each entry to its inhibition
target: Sodium-dependent noradrenaline transporter (Homo sapiens, UniProt P23975); assay: Compound was evaluated for binding to Norepinephrine Transporter (NET) using [3H]desmethylimipramine as radioligand; settings: concentration not given here
Sequence (P23975 whole entry): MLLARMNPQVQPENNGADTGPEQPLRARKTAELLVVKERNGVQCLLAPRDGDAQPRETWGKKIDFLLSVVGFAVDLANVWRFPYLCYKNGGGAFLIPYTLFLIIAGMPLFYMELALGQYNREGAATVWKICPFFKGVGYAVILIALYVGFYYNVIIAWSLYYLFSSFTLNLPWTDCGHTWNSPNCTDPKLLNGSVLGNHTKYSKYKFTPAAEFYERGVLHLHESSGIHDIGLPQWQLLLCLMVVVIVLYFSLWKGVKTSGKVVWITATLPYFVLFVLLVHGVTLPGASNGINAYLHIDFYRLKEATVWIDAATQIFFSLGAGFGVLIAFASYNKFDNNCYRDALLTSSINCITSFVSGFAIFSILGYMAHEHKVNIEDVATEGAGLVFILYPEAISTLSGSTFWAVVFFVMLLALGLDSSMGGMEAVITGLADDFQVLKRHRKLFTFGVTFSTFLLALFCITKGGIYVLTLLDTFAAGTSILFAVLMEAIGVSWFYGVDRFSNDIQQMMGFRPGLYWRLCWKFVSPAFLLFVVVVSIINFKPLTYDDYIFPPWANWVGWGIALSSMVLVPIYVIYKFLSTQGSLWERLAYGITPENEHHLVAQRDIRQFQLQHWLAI
Record the value in %, omitting the unit from your answer.

Below are worked cases with known answers.
O=CN1C2CCC1CC(OC(c1ccc(F)cc1)c1ccc(F)cc1)C2 (centres undefined) = 29.4
Fc1ccc(CN2C3CCC2CC(OC(c2ccc(F)cc2)c2ccc(F)cc2)C3)cc1 (centres undefined) = 60
CC(=O)N1C2CCC1CC(OC(c1ccc(F)cc1)c1ccc(F)cc1)C2 (centres undefined) = 8.5

Record C[N+]1(C)[C@@H]2CC[C@H]1C[C@@H](OC(c1ccc(F)cc1)c1ccc(F)cc1)C2 . Reported inhibition: 38

---

biological target: Sodium-dependent serotonin transporter (Rattus norvegicus); assay: Compound is evaluated for binding to Serotonin transporter using [3H]citalopram as radioligand in rat brain; assay type: tissue-based; settings: concentration not given here
Sequence (P31652 whole entry): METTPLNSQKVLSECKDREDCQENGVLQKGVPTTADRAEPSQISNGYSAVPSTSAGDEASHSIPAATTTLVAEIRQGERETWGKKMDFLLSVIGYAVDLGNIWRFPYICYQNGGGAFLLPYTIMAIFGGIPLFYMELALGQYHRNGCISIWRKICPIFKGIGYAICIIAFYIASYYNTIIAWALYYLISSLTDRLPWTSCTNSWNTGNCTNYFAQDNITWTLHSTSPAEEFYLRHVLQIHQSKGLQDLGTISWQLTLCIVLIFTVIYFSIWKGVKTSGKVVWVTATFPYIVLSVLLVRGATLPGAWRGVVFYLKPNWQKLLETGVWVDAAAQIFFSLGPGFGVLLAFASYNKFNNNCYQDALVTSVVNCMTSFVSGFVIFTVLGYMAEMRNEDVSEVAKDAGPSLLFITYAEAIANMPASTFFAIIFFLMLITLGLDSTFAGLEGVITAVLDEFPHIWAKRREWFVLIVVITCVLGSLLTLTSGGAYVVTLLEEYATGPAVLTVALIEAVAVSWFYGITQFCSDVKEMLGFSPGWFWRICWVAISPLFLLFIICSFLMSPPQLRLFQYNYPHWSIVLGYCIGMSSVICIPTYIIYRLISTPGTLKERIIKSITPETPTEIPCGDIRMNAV
# maps each entry to its inhibition

Below are worked cases with known answers.
Fc1ccc(C(OC2CC3CCC(C2)N3Cc2ccccc2)c2ccc(F)cc2)cc1 (centres undefined) = 74%
CC(=O)N1C2CCC1CC(OC(c1ccc(F)cc1)c1ccc(F)cc1)C2 (centres undefined) = 1.3%
O=CN1C2CCC1CC(OC(c1ccc(F)cc1)c1ccc(F)cc1)C2 (centres undefined) = 1.6%

Test item C[N+]1(C)[C@@H]2CC[C@H]1C[C@@H](OC(c1ccc(F)cc1)c1ccc(F)cc1)C2 ; Sodium-dependent serotonin transporter (Rattus norvegicus); reported inhibition was 79%

---

target: UniProt P31652
measurement-label: pKi
The value called pKi is obtained by taking minus log10 of the concentration in mol/L.

Fc1ccc(C(OC2CC3CCC(C2)N3CCCc2ccccc2)c2ccc(F)cc2)cc1 (stereo unspecified) = 6.43
Fc1ccc(C(OC2CC3CCC(C2)N3CC2CC2)c2ccc(F)cc2)cc1 (stereo unspecified) = 5.92
CN1C2CCC1CC(OC(c1ccc(F)cc1)c1ccc(F)cc1)C2 (stereo unspecified) = 5.61

Test item Fc1ccc(C(OC2CC3CCC(C2)N3)c2ccc(F)cc2)cc1 (stereo unspecified) ; UniProt P31652; reported pKi was 5.68

Test item C=CCN1C2CCC1CC(OC(c1ccc(F)cc1)c1ccc(F)cc1)C2 (stereo unspecified) ; UniProt P31652; reported pKi was 5.84

Test item CCCCN1C2CCC1CC(OC(c1ccc(F)cc1)c1ccc(F)cc1)C2 (stereo unspecified) ; UniProt P31652; reported pKi was 5.76

---

Reported Ki values, Muscarinic acetylcholine receptor M1 (Rattus norvegicus).
Record the value in nM, omitting the unit from your answer.

Fc1ccc(C(OC2CC3CCC(C2)N3)c2ccc(F)cc2)cc1 (centres undefined) = 156
Fc1ccc(C(OC2CC3CCC(C2)N3CCCc2ccccc2)c2ccc(F)cc2)cc1 (centres undefined) = 136
O=CN1C2CCC1CC(OC(c1ccc(F)cc1)c1ccc(F)cc1)C2 (centres undefined) = 12300

Record C[N+]1(C)[C@@H]2CC[C@H]1C[C@@H](OC(c1ccc(F)cc1)c1ccc(F)cc1)C2 . Reported Ki: 29.1

Record Fc1ccc(C(OC2CC3CCC(C2)N3CC2CC2)c2ccc(F)cc2)cc1 (centres undefined) . Reported Ki: 136

Record Fc1ccc(CN2C3CCC2CC(OC(c2ccc(F)cc2)c2ccc(F)cc2)C3)cc1 (centres undefined) . Reported Ki: 611

Record Fc1ccc(C(OC2CC3CCC(C2)N3Cc2ccccc2)c2ccc(F)cc2)cc1 (centres undefined) . Reported Ki: 773

Record CCCCN1C2CCC1CC(OC(c1ccc(F)cc1)c1ccc(F)cc1)C2 (centres undefined) . Reported Ki: 251

Record C=CCN1C2CCC1CC(OC(c1ccc(F)cc1)c1ccc(F)cc1)C2 (centres undefined) . Reported Ki: 126
